test method notes: gradient 5% acetonitrile 3 min, to 50% in 2 min, to 85% in 15 min, held 3 min, 100 µL/min
condition parameters: column: Zorbax Extend-C18 2.1 x 50 mm; eluents: water / acetonitrile, 0.1% formic acid
parameter: RP-LC retention time (s)

INSERT INTO measurements (molecule, parameter, observed_measurement) VALUES
  ('O=C(c1ccc(Cl)c(Cl)c1)N1CCC2(CC1)OCCS2', 'RP-LC retention time', 890);

(P) CC(=O)N1CCc2cc(S(=O)(=O)C(C)CC(=O)NC3CCN(Cc4ccccc4)CC3)ccc21 (stereo not drawn)
(Q) O=C(NCc1cccc(Br)c1)C1CCCN(c2ccc(=O)n(-c3cccc(F)c3)n2)C1 (stereo not drawn)
Consider entries P and Q . Which has the numerically lower RP-LC retention time? Kindly state the label of the option you pick.
P

---

test method notes: gradient 5% acetonitrile 3 min, to 50% in 2 min, to 85% in 15 min, held 3 min, 100 µL/min
condition parameters: column: Zorbax Extend-C18 2.1 x 50 mm; eluents: water / acetonitrile, 0.1% formic acid
parameter: RP-LC retention time (s)

INSERT INTO results (compound, parameter, units, observed_measurement) VALUES
  ('Cc1ccc(NC(=O)N2CCC(n3cnc4c(C)cccc4c3=O)CC2)c(C)c1', 'RP-LC retention time', 's', 835),
  ('Cc1ccc(CNC(=O)c2c(C)sc3ccn(CC(C)C)c(=O)c23)cc1', 'RP-LC retention time', 's', 999),
  ('COc1ccc(-c2nc(-c3cccc(-c4ccnn4C)c3)no2)cc1', 'RP-LC retention time', 's', 1120),
  ('O=C1CC(c2nc(-c3ccccc3)no2)CN1c1ccc2c(c1)OCCO2 (stereo not drawn)', 'RP-LC retention time', 's', 933),
  ('Cc1cc(NC(=O)CC(=O)Nc2ccc3nc4n(c(=O)c3c2)CCCCC4)no1', 'RP-LC retention time', 's', 636),
  ('Cc1cc2c(cc1C)[n+](=O)c(C(=O)/C=C/c1ccccc1[N+](=O)[O-])c(C)n2[O-]', 'RP-LC retention time', 's', 806),
  ('CC1CN(CC(=O)NCc2ccc3c(c2)OCO3)c2ccccc2S1 (stereo not drawn)', 'RP-LC retention time', 's', 967),
  ('COc1ccc(OC)c(CNC(=O)CCC(=O)N2CCCn3nc(C)cc32)c1', 'RP-LC retention time', 's', 654);

(P) O=C(NCCC1=CCCCC1)c1ccc(CN2CC(=O)N3CCCCC3C2=O)cc1 (stereo not drawn)
(Q) CCC(C)n1c(=O)c2ccccc2n(Cc2nc(-c3ccc(C)cc3)no2)c1=O (stereo not drawn)
Response body: label of entry with the larger RP-LC retention time; valid values P , Q . Kindly state the label of the option you pick.
Q
(Q: 1240 s, P: 680 s)

(A) O=S(=O)(c1cccc2nsnc12)N1CC[C@@H]2COCCN(Cc3cccnc3)[C@@H]2C1
(B) COC(=O)c1cccc(NC(=O)c2sc(-c3cn(C)c4ncccc34)nc2C)c1
Response body: label of entry with the larger RP-LC retention time; valid values A , B . Kindly state the label of the option you pick.
B
(B: 927 s, A: 615 s)

---

test method notes: gradient 5% acetonitrile 3 min, to 50% in 2 min, to 85% in 15 min, held 3 min, 100 µL/min
condition parameters: column: Zorbax Extend-C18 2.1 x 50 mm; eluents: water / acetonitrile, 0.1% formic acid
parameter: RP-LC retention time (s)

INSERT INTO assay_data (molecule, parameter, observed_measurement) VALUES
  ('Cc1nn(C(C)C(=O)N2CCOCC2)c(=O)c2nn(-c3ccccc3)c(C)c12 (stereo unspecified)', 'RP-LC retention time', 684),
  ('CCc1ccc(Nc2c(C(=O)N3CCC(C)CC3)cnc3nc(C)ccc23)cc1', 'RP-LC retention time', 699),
  ('O=C(c1ccccc1)N1CCC(n2c(-c3ccoc3)nc3cccnc32)C1 (stereo unspecified)', 'RP-LC retention time', 695),
  ('CCc1cc(=O)n(CC(=O)Nc2ccc(OC)cc2)c(N2CCOCC2)n1', 'RP-LC retention time', 699),
  ('CN(C)C1CCc2[nH]c3c(F)cc(F)cc3c2C1 (stereo unspecified)', 'RP-LC retention time', 685),
  ('Cc1ccc(C)c(C(=O)N2CCC(c3cc4n(n3)CCCN(C)C4=O)CC2)c1', 'RP-LC retention time', 690);
